B1: tRNA (parent)
chain: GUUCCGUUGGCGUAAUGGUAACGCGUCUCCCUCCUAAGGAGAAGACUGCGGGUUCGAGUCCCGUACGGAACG

Variants of: B1
assayText: yeast fitness relative to wild type (ratio to wild type); higher = fitter; tRNA-Arg(CCU), competitive growth, 37 C, YPD
Variants at the floor of the assay were thinned out.
The following variants are shown together with reported yeast fitness values.
assayMetric: yeast fitness

| variantAnnotation | assayMetric | modifierSign | recordedValue |
| --- | --- | --- | --- |
| A20C U59A C62G A70C | yeast fitness | ≤ | 0.5 |
| U3C C5G U19G C31A C46A | yeast fitness | = | 0.663 |
| A15C C33U U47G C49U G52C G68A | yeast fitness | ≤ | 0.5 |
| G10C C29A C33A G52A | yeast fitness | = | 0.57 |
| U3G U26A C29A C34A G38A G67C | yeast fitness | = | 0.712 |
| G12A C30A C31G U54G | yeast fitness | ≤ | 0.5 |
| U28C C46G | yeast fitness | = | 1.08 |
| C4A C29G A40U | yeast fitness | ≤ | 0.5 |
| A57U U59G C66U | yeast fitness | ≤ | 0.5 |
| U13A C24U U35A A43C G50C | yeast fitness | ≤ | 0.5 |
| C4U G12A A20G C22U G68C | yeast fitness | ≤ | 0.5 |
| G6A G44C G50C A57G | yeast fitness | ≤ | 0.5 |
| A37U C62A | yeast fitness | = | 0.523 |
| C5G U26C A42G A57G A70G | yeast fitness | ≤ | 0.5 |
| C31G A69U | yeast fitness | = | 0.752 |
| C24G U28C G50C | yeast fitness | ≤ | 0.5 |
| C4U A42G C49U | yeast fitness | = | 0.704 |
| U8C G38A G52A | yeast fitness | ≤ | 0.5 |
| C34G A45C | yeast fitness | = | 0.569 |
| G9U U16G C66A | yeast fitness | ≤ | 0.5 |
| G23C C60G C61U G68A | yeast fitness | ≤ | 0.5 |
| A15U C46U C66U A69G | yeast fitness | ≤ | 0.5 |
| C24A C30U C55U | yeast fitness | ≤ | 0.5 |
| G9C C31G A69G | yeast fitness | ≤ | 0.5 |
| U2C U19C U59A | yeast fitness | = | 0.582 |
| U26C C27U A57G | yeast fitness | = | 0.725 |
| G58A A65U | yeast fitness | = | 1.04 |
| A20G C27G A36G | yeast fitness | = | 0.504 |
| G10C C30G A65C G68C | yeast fitness | ≤ | 0.5 |
| U16A G25C A40C C49U | yeast fitness | ≤ | 0.5 |
| G10A A57G C62G C66U | yeast fitness | ≤ | 0.5 |
| U16C A20C A36U C61U | yeast fitness | ≤ | 0.5 |
| U19A C66U | yeast fitness | = | 0.996 |
| U53C G56A | yeast fitness | = | 0.802 |
| A14C G58A | yeast fitness | = | 0.868 |
| C62G A69G | yeast fitness | = | 0.819 |
| A14G C61U | yeast fitness | = | 0.934 |
| A20G C31G C61G C66U A69U | yeast fitness | = | 0.545 |
| A36G C62U | yeast fitness | = | 1.05 |
| C5A G17C C22U C60G C61U | yeast fitness | = | 0.947 |
| C4A G18A A20C U26G C27U C49U A69C | yeast fitness | ≤ | 0.5 |
| U2G U7C C29G C60A | yeast fitness | ≤ | 0.5 |
| U7C G23A C33G | yeast fitness | ≤ | 0.5 |
| U2A A20G C29U C33A C55A C60G | yeast fitness | ≤ | 0.5 |
| A15G G56A | yeast fitness | = | 0.971 |
| G6C A14G U35G | yeast fitness | = | 0.605 |
